All values here come from paper PMC5896380.

# TGT: cathepsin L (Homo sapiens)
# Construct: made in house
# Sequence (P07711 114-333): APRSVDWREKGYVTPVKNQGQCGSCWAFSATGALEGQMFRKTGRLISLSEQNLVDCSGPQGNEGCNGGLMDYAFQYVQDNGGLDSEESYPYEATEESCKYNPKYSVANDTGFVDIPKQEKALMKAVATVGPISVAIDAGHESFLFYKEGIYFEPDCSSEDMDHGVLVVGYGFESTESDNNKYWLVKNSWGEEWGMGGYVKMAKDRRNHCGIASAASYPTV
# PROTOCOL_DESCRIPTION: Kinetic parameters of ACC substrates with cathepsin L
# Format: biochemical
# CONDITIONS: Fig. 5B; pH 5.5, 37 °C; cathepsin L 0.1–0.5 nM; triplicate, SD below 15%
Non-standard residues stand in square brackets, D forms with d. *: point of attachment. Phe(F5) = N[C@@H](Cc1c(F)c(F)c(F)c(F)c1F)C(=O)O; Phe(2-Cl) = N[C@@H](Cc1ccccc1Cl)C(=O)O; ACC = NC(=O)Cc1cc(=O)oc2cc(N*)ccc12; Meb = Cc1ccc(C*)cc1
Quick reference: kcat/KM Cath-L of the listed items.

query: Using known records, supply kcat/KM Cath-L for Ac-H[dK][Phe(F5)]R-{ACC} (SMILES CC(=O)N[C@@H](Cc1c[nH]cn1)C(=O)N[C@H](CCCCN)C(=O)N[C@@H](Cc1c(F)c(F)c(F)c(F)c1F)C(=O)N[C@@H](CCCNC(=N)N)C(=O)Nc1ccc2c(CC(N)=O)cc(=O)oc2c1)
result: 715,000 M^-1s^-1

query: Using known records, supply kcat/KM Cath-L for Ac-H[dQ][Phe(F5)]R-{ACC} (SMILES CC(=O)N[C@@H](Cc1c[nH]cn1)C(=O)N[C@H](CCC(N)=O)C(=O)N[C@@H](Cc1c(F)c(F)c(F)c(F)c1F)C(=O)N[C@@H](CCCNC(=N)N)C(=O)Nc1ccc2c(CC(N)=O)cc(=O)oc2c1)
result: 336,900 M^-1s^-1

query: Using known records, supply kcat/KM Cath-L for Ac-H[dV][Phe(F5)]R-{ACC} (SMILES CC(=O)N[C@@H](Cc1c[nH]cn1)C(=O)N[C@@H](C(=O)N[C@@H](Cc1c(F)c(F)c(F)c(F)c1F)C(=O)N[C@@H](CCCNC(=N)N)C(=O)Nc1ccc2c(CC(N)=O)cc(=O)oc2c1)C(C)C)
result: 747,400 M^-1s^-1

query: Using known records, supply kcat/KM Cath-L for Ac-H[dL][Phe(F5)]R-{ACC} (SMILES CC(=O)N[C@@H](Cc1c[nH]cn1)C(=O)N[C@H](CC(C)C)C(=O)N[C@@H](Cc1c(F)c(F)c(F)c(F)c1F)C(=O)N[C@@H](CCCNC(=N)N)C(=O)Nc1ccc2c(CC(N)=O)cc(=O)oc2c1)
result: 405,900 M^-1s^-1

query: Using known records, supply kcat/KM Cath-L for Ac-H[dV][Phe(2-Cl)]R-{ACC} (SMILES CC(=O)N[C@@H](Cc1c[nH]cn1)C(=O)N[C@@H](C(=O)N[C@@H](Cc1ccccc1Cl)C(=O)N[C@@H](CCCNC(=N)N)C(=O)Nc1ccc2c(CC(N)=O)cc(=O)oc2c1)C(C)C)
result: 5,689,000 M^-1s^-1

query: Using known records, supply kcat/KM Cath-L for Ac-H[dV][Phe(F5)]L-{ACC} (SMILES CC(=O)N[C@@H](Cc1c[nH]cn1)C(=O)N[C@@H](C(=O)N[C@@H](Cc1c(F)c(F)c(F)c(F)c1F)C(=O)N[C@@H](CC(C)C)C(=O)Nc1ccc2c(CC(N)=O)cc(=O)oc2c1)C(C)C)
result: 135,600 M^-1s^-1

query: Using known records, supply kcat/KM Cath-L for Ac-H[dV][Phe(F5)]C(Meb)-{ACC} (SMILES CC(=O)N[C@@H](Cc1c[nH]cn1)C(=O)N[C@@H](C(=O)N[C@@H](Cc1c(F)c(F)c(F)c(F)c1F)C(=O)N[C@@H](CSCc1ccc(C)cc1)C(=O)Nc1ccc2c(CC(N)=O)cc(=O)oc2c1)C(C)C)
result: 1,476,000 M^-1s^-1

query: Using known records, supply kcat/KM Cath-L for Ac-R[dV][Phe(F5)]R-{ACC} (SMILES CC(=O)N[C@@H](CCCNC(=N)N)C(=O)N[C@@H](C(=O)N[C@@H](Cc1c(F)c(F)c(F)c(F)c1F)C(=O)N[C@@H](CCCNC(=N)N)C(=O)Nc1ccc2c(CC(N)=O)cc(=O)oc2c1)C(C)C)
result: 387,300 M^-1s^-1

====

# TGT: cathepsin V (Homo sapiens)
# Construct: made in house
# Sequence (O60911 114-334): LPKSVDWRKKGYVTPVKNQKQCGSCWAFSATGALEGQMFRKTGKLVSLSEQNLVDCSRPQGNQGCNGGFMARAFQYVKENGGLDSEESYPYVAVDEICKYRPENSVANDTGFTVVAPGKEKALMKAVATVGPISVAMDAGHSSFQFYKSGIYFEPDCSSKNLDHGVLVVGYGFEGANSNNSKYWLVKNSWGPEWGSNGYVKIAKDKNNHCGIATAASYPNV
# PROTOCOL_DESCRIPTION: Kinetic parameters of ACC substrates with cathepsin V
# Format: biochemical
# CONDITIONS: Fig. 5B; pH 5.5, 37 °C; cathepsin V 10–20 nM; triplicate, SD below 15%
Non-standard residues stand in square brackets, D forms with d. *: point of attachment. Phe(F5) = N[C@@H](Cc1c(F)c(F)c(F)c(F)c1F)C(=O)O; ACC = NC(=O)Cc1cc(=O)oc2cc(N*)ccc12; hArg = N=C(N)NCCCC[C@H](N)C(=O)O; ClZ = O=C(OCc1ccccc1Cl)*
MEASURED_ENDPOINT: kcat/KM Cath-V (M⁻¹ s⁻¹)
Respond numerically; units are M⁻¹ s⁻¹ and should not be typed.

1. Ac-[hArg][dV][Phe(F5)]R-{ACC} (SMILES CC(=O)N[C@@H](CCCCNC(=N)N)C(=O)N[C@@H](C(=O)N[C@@H](Cc1c(F)c(F)c(F)c(F)c1F)C(=O)N[C@@H](CCCNC(=N)N)C(=O)Nc1ccc2c(CC(N)=O)cc(=O)oc2c1)C(C)C)    647

query: Using known records, supply kcat/KM Cath-V for Ac-H[dV][Phe(F5)]K(ClZ)-{ACC} (SMILES CC(=O)N[C@@H](Cc1c[nH]cn1)C(=O)N[C@@H](C(=O)N[C@@H](Cc1c(F)c(F)c(F)c(F)c1F)C(=O)N[C@@H](CCCCNC(=O)OCc1ccccc1Cl)C(=O)Nc1ccc2c(CC(N)=O)cc(=O)oc2c1)C(C)C)
result: 329

====

# TGT: cathepsin K (Homo sapiens, UniProt P43235)
# Construct: made in house
# Sequence (P43235 115-329): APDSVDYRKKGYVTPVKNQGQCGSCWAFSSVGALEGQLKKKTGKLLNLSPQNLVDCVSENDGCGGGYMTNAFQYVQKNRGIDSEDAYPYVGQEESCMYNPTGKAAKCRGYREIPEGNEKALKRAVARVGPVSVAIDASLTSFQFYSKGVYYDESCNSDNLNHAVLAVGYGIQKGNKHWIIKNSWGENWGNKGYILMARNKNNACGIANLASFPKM
# PROTOCOL_DESCRIPTION: Substrate selectivity screening, rate of hydrolysis, cathepsin K
# Type: biochemical
# CONDITIONS: Table S4; substrate 100µM, cathepsin 5nM; pH 5.5, 37 °C; average of at least three screenings
Non-standard residues stand in square brackets, D forms with d. *: point of attachment. Phe(3,4-Cl2) = N[C@@H](Cc1ccc(Cl)c(Cl)c1)C(=O)O; Phe(F5) = N[C@@H](Cc1c(F)c(F)c(F)c(F)c1F)C(=O)O; ACC = NC(=O)Cc1cc(=O)oc2cc(N*)ccc12; Orn = NCCC[C@H](N)C(=O)O
MEASURED_ENDPOINT: Relative substrate activity (rate of hydrolysis), cathepsin K (RFU/s)
Respond numerically; units are RFU/s and should not be typed.

// solved cases for Relative substrate activity (rate of hydrolysis), cathepsin K follow
1. Ac-A[Orn][Phe(3,4-Cl2)]R-{ACC} (SMILES CC(=O)N[C@@H](C)C(=O)N[C@@H](CCCN)C(=O)N[C@@H](Cc1ccc(Cl)c(Cl)c1)C(=O)N[C@@H](CCCNC(=N)N)C(=O)Nc1ccc2c(CC(N)=O)cc(=O)oc2c1)    4.6
2. Ac-H[dV][Phe(F5)]R-{ACC} (SMILES CC(=O)N[C@@H](Cc1c[nH]cn1)C(=O)N[C@@H](C(=O)N[C@@H](Cc1c(F)c(F)c(F)c(F)c1F)C(=O)N[C@@H](CCCNC(=N)N)C(=O)Nc1ccc2c(CC(N)=O)cc(=O)oc2c1)C(C)C)    1.1
3. Ac-H[dL][Phe(F5)][Orn]-{ACC} (SMILES CC(=O)N[C@@H](Cc1c[nH]cn1)C(=O)N[C@H](CC(C)C)C(=O)N[C@@H](Cc1c(F)c(F)c(F)c(F)c1F)C(=O)N[C@@H](CCCN)C(=O)Nc1ccc2c(CC(N)=O)cc(=O)oc2c1)    0.3

Kindly consider the entry below.
query: Using known records, supply Relative substrate activity (rate of hydrolysis), cathepsin K for Ac-H[dL][Phe(3,4-Cl2)]R-{ACC} (SMILES CC(=O)N[C@@H](Cc1c[nH]cn1)C(=O)N[C@H](CC(C)C)C(=O)N[C@@H](Cc1ccc(Cl)c(Cl)c1)C(=O)N[C@@H](CCCNC(=N)N)C(=O)Nc1ccc2c(CC(N)=O)cc(=O)oc2c1)
result: 1.5

====

Quick reference: kcat/KM Cath-S of the listed items.
# TGT: cathepsin S (Homo sapiens, UniProt P25774)
# Construct: made in house
# Sequence (P25774 115-331): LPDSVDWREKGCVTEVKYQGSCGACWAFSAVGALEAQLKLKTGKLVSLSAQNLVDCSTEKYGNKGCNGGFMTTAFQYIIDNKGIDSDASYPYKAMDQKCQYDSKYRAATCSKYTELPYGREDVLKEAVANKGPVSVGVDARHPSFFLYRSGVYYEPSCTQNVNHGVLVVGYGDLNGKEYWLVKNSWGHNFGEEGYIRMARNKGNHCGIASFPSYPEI
# PROTOCOL_DESCRIPTION: Kinetic parameters of ACC substrates with cathepsin S
# Format: biochemical
# CONDITIONS: Fig. 5B; pH 5.5, 37 °C; cathepsin S 5–20 nM; triplicate, SD below 15%
Non-standard residues stand in square brackets, D forms with d. *: point of attachment. Phe(F5) = N[C@@H](Cc1c(F)c(F)c(F)c(F)c1F)C(=O)O; Phe(2-Cl) = N[C@@H](Cc1ccccc1Cl)C(=O)O; ACC = NC(=O)Cc1cc(=O)oc2cc(N*)ccc12; hArg = N=C(N)NCCCC[C@H](N)C(=O)O

1) Ac-H[dV][Phe(F5)][hArg]-{ACC} (SMILES CC(=O)N[C@@H](Cc1c[nH]cn1)C(=O)N[C@@H](C(=O)N[C@@H](Cc1c(F)c(F)c(F)c(F)c1F)C(=O)N[C@@H](CCCCNC(=N)N)C(=O)Nc1ccc2c(CC(N)=O)cc(=O)oc2c1)C(C)C)    < 10 M⁻¹ s⁻¹
2) Ac-H[dQ][Phe(F5)]R-{ACC} (SMILES CC(=O)N[C@@H](Cc1c[nH]cn1)C(=O)N[C@H](CCC(N)=O)C(=O)N[C@@H](Cc1c(F)c(F)c(F)c(F)c1F)C(=O)N[C@@H](CCCNC(=N)N)C(=O)Nc1ccc2c(CC(N)=O)cc(=O)oc2c1)    < 10 M⁻¹ s⁻¹
3) Ac-H[dT][Phe(F5)]R-{ACC} (SMILES CC(=O)N[C@@H](Cc1c[nH]cn1)C(=O)N[C@@H](C(=O)N[C@@H](Cc1c(F)c(F)c(F)c(F)c1F)C(=O)N[C@@H](CCCNC(=N)N)C(=O)Nc1ccc2c(CC(N)=O)cc(=O)oc2c1)[C@H](C)O)    < 10 M⁻¹ s⁻¹

Kindly consider the entry below.
query: Using known records, supply kcat/KM Cath-S for Ac-H[dV][Phe(2-Cl)]R-{ACC} (SMILES CC(=O)N[C@@H](Cc1c[nH]cn1)C(=O)N[C@@H](C(=O)N[C@@H](Cc1ccccc1Cl)C(=O)N[C@@H](CCCNC(=N)N)C(=O)Nc1ccc2c(CC(N)=O)cc(=O)oc2c1)C(C)C)
result: 2,760 M^-1s^-1
